- Tested on: HCT-15 colon
- Measurement Description: NCI-60 one-dose screen, 48 h (100 = growth as untreated, 0 = no growth, -100 = all killed)
- Assay Conditions: 10 µM
This is part of a sample that, as a whole, favours compounds with a hit. Of some 83,000 tested, about 20% had one in any assay.
So basically: is growth under 80%? Then 1. Not under? Then 0.

Answered examples (3):
COc1ccc(-c2nc3sc(-c4ccc(OC)cc4)c(-c4ccc(OC)cc4)n3c2/C=C/c2ccc(C(C)C)cc2)cc1 : 0
CCN(CC)Cc1cc(Nc2ccnc3cc(Cl)ccc23)ccc1OC : 1
c1ccc(C(NC2CC3CCC2C3)c2ccccc2)cc1 (stereo not drawn) : 0

# strict comparison: is reported growth < 80%? input = CCCCCCCCCCCCCCCC(=O)OC1[C@@H](OC(=O)CCCCCCCCCCCCCCC)[C@@H](C(=O)N[C@@H](CCCCN)C(=O)OC)O[C@H]1n1cnc2c(=O)[nH]c(NC(=O)C(C)C)nc21 (stereo partly drawn)
0

# strict comparison: is reported growth < 80%? input = COc1ccc2c(c1)O/C(=C\c1ncc([N+](=O)[O-])n1C)C2=O
1

# strict comparison: is reported growth < 80%? input = COc1ccc(OC)c2c1C(=O)CC2C (stereo not drawn)
0

# strict comparison: is reported growth < 80%? input = COc1cc(CNc2ccccc2C(=O)N2CCN(C(=O)c3cc(-c4cc(OC)c(OC)c(OC)c4)n4nc(-c5ccccc5)cc4n3)CC2)cc(OC)c1OC
1

* * *

- Tested on: SF-268 CNS
- Measurement Description: NCI-60 one-dose screen, 48 h (100 = growth as untreated, 0 = no growth, -100 = all killed)
- Assay Conditions: 10 µM
About 83,000 compounds went through this panel and 20% of them were active in at least one assay; those are over-represented in the sample as a whole.
Collected growth values appear next to each entry.
# output: bare number, implied unit %

Solved entries:
COc1cc(CNCCCCCCN2C(=O)c3cccc4cccc(c34)C2=O)ccc1O : 88.7
N#Cc1ncc(Br)c(NC2CCCCCC2)n1 : 111

Here is the next item to consider.
# query: growth of entry COc1ccc(NC2=NC(C)(CO)CS2)cc1 (stereo not drawn)
103

* * *

- Test system: HCT-15 colon
- Measurement Description: NCI-60 one-dose screen, 48 h (100 = growth as untreated, 0 = no growth, -100 = all killed)
- Assay Conditions: 10 µM
The panel holds about 83,000 compounds, 20% with a hit somewhere; the sample as a whole holds those more often.
Quantity Name: growth (%)
# output: bare number, implied unit %

Solved entries:
CC(=O)/C(=C/c1ccccc1)C(=O)CC(C)C : 76.1
CCOCCOCCOCCOCCOCCOCCOCCOCCOCCO (tested in a mixture with another compound) : 22.1
CC(=O)N1C/C(=C/c2ccc(Cl)cc2)C(=O)/C(=C/c2ccc(Cl)cc2)C1 : -5.84
CCCCCCCCCCCCCCCCCC(=O)OCCCCCCC : 95.5
CCN(CC)CCCC(C)Nc1nc(-c2ccc(OC)cc2)nc2cc(Cl)ccc12 (stereo unspecified) : 49.9
COc1ccc2c(c1)C(=O)c1c-2c(OCCN(C)C)nc2cc(OC)c(OC)cc12 : 76.8
COc1cc(-c2cc(-c3cc4c([nH]c5ccccc54)c(-c4cc(OC)c(OC)c(OC)c4)n3)cc(-c3ccccc3)n2)cc(OC)c1OC : 51.6
COc1ccccc1/C=C/C(=O)c1ccccc1 : 61.6

Provide the documented growth with HCT-15 colon as the system for COc1ccc(-c2nc(-c3nc4ccc(OC)cc4[nH]3)cc3c2[nH]c2ccccc23)cc1
28.7

Provide the documented growth with HCT-15 colon as the system for COc1cc(-c2cc(/C=C3\C(=O)Nc4ccccc43)[nH]n2)cc(OC)c1OC
36.9

Provide the documented growth with HCT-15 colon as the system for COc1cccc(NC(=O)c2sc3nc4c(cc3c2N)C(O)CCC4)c1 (stereo unspecified)
19.4
